biological target: cAMP-dependent protein kinase catalytic subunit alpha (Homo sapiens) (UniProt P17612)
Would you mind labelling by ΔTm? At or over 0.8 °C is 1 (yes), under is 0 (no).

These solved cases illustrate the format of a correct answer.
CCCNC(=O)Nc1ccc(Oc2ncnc3cc(OC)c(OC)cc23)cc1Cl [KRN-633] = 1 (yes)
O=C(Nc1cccc(Nc2nccc(Nc3cccc(C(F)(F)F)c3)n2)c1)C1CC1 [ANILINOPYRIMIDINE1] = 1 (yes)
O=C1Cc2c([nH]c3ccc(Br)cc23)-c2ccccc2N1 [KENPAULLONE] = 1 (yes)

# input Check the entry "O=C1NC(=O)C(c2c[nH]c3ccccc23)=C1c1c[nH]c2ccccc12" : does ΔTm equal or exceed 0.8 °C?
# output 1 (yes)

----------
Here's a batch of compounds along with measured ΔTm for Serine/threonine-protein kinase PAK 4 (Homo sapiens).
Please state the figure in °C; there is no need to write the unit.

O=C(O)c1cc(N(Cc2ccccc2O)Cc2cc(O)ccc2O)ccc1O = 0.1
CN(C)c1ccc(CC2C(=O)Nc3ccccc32)cc1 (stereo not given) = 0.9
CN(C)c1ncnc2nc[nH]c12 = 0.5

# input # get_value(readout='ΔTm', item= O=C1c2ccccc2-[n+]2ccc3c([nH]c4ccccc43)c21 [FASCAPLYSIN CHLORIDE] )
# output -0.6

# input # get_value(readout='ΔTm', item= "CC(C)n1cnc2/c(=N/c3cccc(Cl)c3)nc(NCCO)[nH]c21" )
# output 2.9

# input # get_value(readout='ΔTm', item= "CC(C)c1cc(/C=C(\C#N)C(=O)NCCCc2ccccc2)cc(C(C)C)c1O" )
# output 1.2

# input # get_value(readout='ΔTm', item= C[S+]([O-])c1ccc(-c2nc(-c3ccc(F)cc3)c(-c3ccncc3)[nH]2)cc1 (stereo not given) )
# output 0.1

# input # get_value(readout='ΔTm', item= "Cc1ccc(NC2=CC(=O)c3sc(C)nc3C2=O)cc1" )
# output -0.7

# input # get_value(readout='ΔTm', item= "C/C(O)=C(\C#N)C(=O)Nc1cc(Br)ccc1Br" )
# output -0.3

# input # get_value(readout='ΔTm', item= "CCOC(=O)c1c(C)[nH]c(/C=C2\C(=O)Nc3ccccc32)c1C" )
# output 0.9

----------
Here's a batch of compounds along with measured ΔTm for STE20-like serine/threonine-protein kinase (Homo sapiens) (UniProt Q9H2G2).
Please state the figure in °C; there is no need to write the unit.

Previously resolved entries follow.
O=C1Nc2ccc(I)cc2/C1=C\c1cc(Br)c(O)c(Br)c1 = 2.2
Cc1ccc(NC2=CC(=O)c3sc(C)nc3C2=O)cc1 = -0.6
O=C(O)c1cc(NCc2cc(O)ccc2O)ccc1O = -0.5
Nc1nccc(-c2c(-c3ccc(F)cc3)ncn2C2CCNCC2)n1 = 1.1

# input # get_value(readout='ΔTm', item= "CC(C)(C)c1cc(C=C2C(=O)C=CC2=O)cc(C(C)(C)C)c1O" )
# output 0.9

# input # get_value(readout='ΔTm', item= "C[C@@H](N)[C@H]1CC[C@H](C(=O)Nc2ccncc2)CC1" )
# output 0.2

# input # get_value(readout='ΔTm', item= CN(C)CC1CCn2c(c(C3=C(c4c[nH]c5ccccc45)C(=O)NC3=O)c3ccccc32)C1 (stereo not given) )
# output 4.2

# input # get_value(readout='ΔTm', item= "CC(C)n1cnc2c(NCc3ccccc3)nc(NCCCO)nc21" )
# output 0.4

# input # get_value(readout='ΔTm', item= "C[C@@H]1C[C@H]2O[C@@H]2/C=C\C=C\C(=O)Cc2c(Cl)c(O)cc(O)c2C(=O)O1" )
# output 0.4

# input # get_value(readout='ΔTm', item= "CC[C@H](CO)Nc1nc(NCc2ccccc2)c2ncn(C(C)C)c2n1" )
# output 0.2

Where these numbers come from: ChEMBL document CHEMBL1145498
